Values were extracted from paper PMC8270260.

Test system: ZIKV
protocol-text: ZIKV titer-reduction assay (plaque assay)
Format: cell-based, Zika virus
recorded-conditions: Zika virus, Huh-7, 72 h; 8.5 µM, Huh7, MOI 0.2, 72 hpi
reported-property: inhibition at 8.5 µM

O=[N+]([O-])c1ccc(Cn2ccc3c(NCc4cccc(Cl)c4Cl)ncnc32)cc1; 91%
O=[N+]([O-])c1ccc(Cn2ccc3c(NCc4cccc(Cl)c4)ncnc32)cc1; 93%
N#Cc1cccc(Cn2ccc3c(NCc4cccc(Cl)c4)ncnc32)c1; 99%
O=[N+]([O-])c1ccccc1Cn1ccc2c(NCc3cccc(Cl)c3)ncnc21; 82%
N#Cc1ccc(Cn2ccc3c(NCc4cccc(Cl)c4)ncnc32)c2ccccc12; 0%

I need inhibition at 8.5 µM for every entry listed below, if you could help.
1. O=[N+]([O-])c1cccc(Cn2ccc3c(NCc4cccc(Cl)c4)ncnc32)c1
2. FC(F)(F)c1ccc(Cn2ccc3c(NCc4cccc(Cl)c4)ncnc32)cc1
3. O=[N+]([O-])c1ccc(Cn2cnc3c(NCc4cccc(Cl)c4)ncnc32)cc1

Outgoing:
92%
83%
90%
